Value source: patent US20220125891A1

Target: T1, full-length human Regnase-1 with a FLAG tag on the N-terminal side and a biotin ligase BirA recognition … (human, UniProt Q5D1E8 1-599, biotinylated where required ; Biotinylated at the BirA recognition sequence where required. That sequence is not in the letters.)
T1 construct: Expressed in Expi293 cells, purified on FLAG M2 agarose and by gel filtration; also called full-length Regnase-1; human full-length Regnase-1
T1 sequence: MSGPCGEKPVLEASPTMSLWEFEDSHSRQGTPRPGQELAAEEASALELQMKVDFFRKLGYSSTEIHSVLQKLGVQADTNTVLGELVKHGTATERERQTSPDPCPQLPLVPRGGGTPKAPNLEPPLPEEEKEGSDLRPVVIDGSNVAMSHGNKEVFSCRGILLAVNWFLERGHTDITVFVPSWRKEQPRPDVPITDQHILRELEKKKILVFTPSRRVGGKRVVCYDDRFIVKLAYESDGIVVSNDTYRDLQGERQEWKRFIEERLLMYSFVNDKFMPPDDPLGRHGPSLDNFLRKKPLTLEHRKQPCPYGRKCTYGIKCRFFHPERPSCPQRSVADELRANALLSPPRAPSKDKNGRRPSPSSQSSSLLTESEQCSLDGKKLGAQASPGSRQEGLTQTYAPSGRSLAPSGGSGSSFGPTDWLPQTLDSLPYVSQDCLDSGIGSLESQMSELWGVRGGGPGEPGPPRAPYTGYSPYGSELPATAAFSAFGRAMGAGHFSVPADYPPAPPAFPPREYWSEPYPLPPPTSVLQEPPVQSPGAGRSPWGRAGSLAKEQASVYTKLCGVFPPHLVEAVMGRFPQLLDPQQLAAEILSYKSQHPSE
Test: AlphaScreen, blocks TBK1 binding to FL_Reg1
Positions of bridges follow the written chain, without caps; N, C: chain ends. Non-standard residues stand in square brackets, D forms with d. No end group written: not given here. NMeA = CN[C@@H](C)C(=O)O; dNMeA = CN[C@H](C)C(=O)O
Please use label 1 for IC50 under 10 µM and label 0 for everything else, ties included.

INPUT: Please determine if [NMeA]NSWYRIWGLD (lactam N-11) [PP22] is below 10 µM in terms of IC50.
OUTPUT: label 0

INPUT: Criterion: IC50 strictly below 10 µM. Is it met by [NMeA]HSNAWYNIWD (lactam N-11) [PP5] ?
OUTPUT: label 0

INPUT: Would you kindly verify if IC50 of [NMeA]RFRQWKWVYPD (lactam N-12) [PP13] is strictly less than 10 µM?
OUTPUT: label 0

INPUT: Does this binder meet the criterion IC50 < 10 µM? [dNMeA]PTSSWYKIWD (lactam N-11) [PP23]
OUTPUT: label 1

INPUT: # strict comparison: is reported IC50 < 10 µM? input = [NMeA]DIWFDYWDYD (lactam N-11) [PP18]
OUTPUT: label 1

INPUT: Lab note: IC50 threshold 10 µM. Does this binder come in strictly under it? [NMeA]NSWYKIWGLD (lactam N-11) [PP21]
OUTPUT: label 1

INPUT: Criterion: IC50 strictly below 10 µM. Is it met by [NMeA]NSWYINIWGHD (lactam N-12) [PP15] ?
OUTPUT: label 0
